Source of measurements: ChEMBL document CHEMBL5058577

Assign Population Apoptotic (%) to each entry below.
Test system: U2OS
Assay: Multiplex assay against U2OS
Format: toxicity, cell-based
Settings: human, 24 h, 1 µM, compound concentration 1 uM, replicate 1
I only need the number, in %, no unit after it.

INPUT: // returns reported Population Apoptotic (%) for input "Cc1cc(=O)n(C)c2cc(N3C(=O)CC[C@H](NS(=O)(=O)CC(C)C)[C@H]3c3ccc(Cl)cc3)ccc12"
OUTPUT: 74

INPUT: Next record, please: Cc1cc(NC(=O)NCCN2CCC(O)(Cc3ccccc3)CC2)c2ccccc2n1 [PALOSURAN]
OUTPUT: 94

INPUT: Next record, please: CN1CCN2c3ccccc3Cc3ccccc3C2C1.Cl (stereo not drawn) [MIANSERIN HYDROCHLORIDE]
OUTPUT: 88

INPUT: Next record, please: COc1cc2nc(N3CCN(C(=O)c4ccco4)CC3)nc(N)c2cc1OC.Cl [PRAZOSIN HYDROCHLORIDE]
OUTPUT: 95

INPUT: Next record, please: "CN1CCC(C(=O)c2cccc(NC(=O)c3c(F)cc(F)cc3F)n2)CC1"
OUTPUT: 85

INPUT: Next record, please: "COc1cc(OC2CCN(C(C)=O)CC2)ccc1C(=O)N1CCC(N2C(=O)OCc3ccccc32)CC1"
OUTPUT: 82

INPUT: Next record, please: O=C(O)CCC/C=C\CC1C(O)CC(O)C1/C=C/C(O)COc1cccc(Cl)c1 (stereo not drawn) [CLOPROSTENOL]
OUTPUT: 81

INPUT: Next record, please: COc1c(Nc2ccc(S(C)(=O)=O)nc2C)ncnc1OC1CCN(C(=O)OC(C)C)CC1 [ADP-597]
OUTPUT: 88

INPUT: Next record, please: "S=C(NCCCc1c[nH]cn1)NCCCN(Cc1ccc(Cl)c(Cl)c1)c1ccc(Br)cn1"
OUTPUT: 81

INPUT: Next record, please: CC(C)(C)c1ccc(CSc2cnn(C(C)(C)C)c(=O)c2Cl)cc1 [PYRIDABEN]
OUTPUT: 83

INPUT: Next record, please: "CCc1nn2c(C)cc(C)nc2c1Cc1ccc(-c2nnc(C3CCNCC3)o2)cc1"
OUTPUT: 80

INPUT: Next record, please: "OCCCNc1cc(-c2ccnc(Nc3cccc(Cl)c3)n2)ccn1"
OUTPUT: 96

INPUT: Next record, please: "CN1CCN(c2ccc(Nc3c4ccccc4nc4ccccc34)cc2)CC1.Cl.Cl.O"
OUTPUT: 92

INPUT: Next record, please: CCCCCCNC(=O)Nc1ccc(S(=O)(=O)Nc2ccc(CCNC[C@H](O)COc3ccc(O)cc3)cc2)cc1 [L-755507]
OUTPUT: 83

INPUT: Next record, please: "N[C@](CC1c2ccccc2Oc2ccccc21)(C(=O)O)[C@H]1C[C@@H]1C(=O)O"
OUTPUT: 78

INPUT: Next record, please: "Nc1nc(-c2ccco2)c2cnn(Cc3ccccc3F)c2n1"
OUTPUT: 96

INPUT: Next record, please: CN(C)C/C=C/C(=O)Nc1ccc(C(=O)N2CCCC(Nc3ncc(Cl)c(-c4c[nH]c5ccccc45)n3)C2)cc1 (stereo not drawn)
OUTPUT: 93

INPUT: Next record, please: "CN(C)C(=O)Cn1cc(-c2ccc(-c3nnc4ccccn34)cc2)cn1"
OUTPUT: 94
